- Tested on: KB
- Assay Details: Cytotoxicity against human KB cells after 72 hrs by SRB assay
- Type: functional, cell-based
Give pIC50 for every item shown.
Keep it numeric: pIC50 is minus log10 of the concentration in mol/L.

So what does the record say about pIC50 for CCCCNP(=O)(OC[C@H]1O[C@@H](n2cc(F)c(=O)[nH]c2=O)C[C@@H]1N=[N+]=[N-])Oc1ccc(Cl)cc1 (stereo partly specified) ?
4.41

So what does the record say about pIC50 for [N-]=[N+]=N[C@H]1C[C@H](n2cc(F)c(=O)[nH]c2=O)O[C@@H]1COP(=O)(NCC(F)(F)F)Oc1ccc(Cl)cc1 (stereo partly specified) ?
4.39

So what does the record say about pIC50 for `O=c1[nH]cc(F)c(=O)[nH]1` ?
5.32

So what does the record say about pIC50 for CNP(=O)(OC[C@H]1O[C@@H](n2cc(F)c(=O)[nH]c2=O)C[C@@H]1N=[N+]=[N-])Oc1ccc(Cl)cc1 (stereo partly specified) ?
5.06

So what does the record say about pIC50 for C#CCNP(=O)(OC[C@H]1O[C@@H](n2cc(F)c(=O)[nH]c2=O)C[C@@H]1N=[N+]=[N-])Oc1ccc(Cl)cc1 (stereo partly specified) ?
5.42

So what does the record say about pIC50 for CCCNP(=O)(OC[C@H]1O[C@@H](n2cc(F)c(=O)[nH]c2=O)C[C@@H]1N=[N+]=[N-])Oc1ccc(Cl)cc1 (stereo partly specified) ?
4.57
